TEST SUMMARY: Cell viability (MTT assay), HCC827
Assay type: cell-based
CONDITION SET: human, HCC827 cells; HCC827, 62.5 nM
MEASURE NAME: viability at 0.0625 µM
Entry format: amount then unit.

Fill in viability at 0.0625 µM for record COc1ccc2[nH]c(-c3cccc(F)c3)cc(=O)c2c1OP(=O)(O)O
70%
